// data source = patent US8598132B2

# System: Erk2 (Homo sapiens)
# Construct: purchased Carna Biosciences
# Sequence (P28482 whole entry): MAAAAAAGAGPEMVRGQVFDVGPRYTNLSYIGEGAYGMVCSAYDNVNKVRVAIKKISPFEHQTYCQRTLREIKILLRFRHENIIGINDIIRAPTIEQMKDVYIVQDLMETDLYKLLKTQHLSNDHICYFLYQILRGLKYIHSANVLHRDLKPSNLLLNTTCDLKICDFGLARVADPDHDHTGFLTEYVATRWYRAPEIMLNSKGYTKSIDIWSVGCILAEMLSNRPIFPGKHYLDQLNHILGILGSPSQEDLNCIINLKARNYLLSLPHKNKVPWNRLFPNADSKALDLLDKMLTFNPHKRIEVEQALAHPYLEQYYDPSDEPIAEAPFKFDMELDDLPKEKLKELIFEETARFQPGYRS
# Procedure Text: LabChip (Caliper) kinase assay, Erk2
# Format: biochemical
# Condition: compound at 10 nM, read-out: remaining kinase activity (in %) / percentage of inhibition
Measure Name: inhibition at 0.01 µM

Molecule: C[C@@H]1O[C@@H](n2c3ccccc3c3c4c(c5c6ccccc6[nH]c5c32)C(=O)NC4=O)C[C@@H](O)[C@H]1O
Endpoint Result: -4%
--
Molecule: C[C@@H]1O[C@@H](n2c3ccccc3c3c4c(c5c6ccccc6[nH]c5c32)C(=O)NC4=O)[C@H](O)[C@H](O)[C@H]1O
Endpoint Result: -6%
--
Molecule: C[C@@H]1O[C@@H](n2c3ccccc3c3c4c(c5c6ccccc6[nH]c5c32)CNC4=O)C[C@H](O)[C@H]1O [formula (XIII), N^13-1′-β-L-olivosyl-k252c]
Endpoint Result: -4%
--
Molecule: C[C@H]1O[C@@H](n2c3ccccc3c3c4c(c5c6ccccc6[nH]c5c32)CNC4=O)C[C@@H](O)[C@@H]1O [formula (XV), N^13-1′-β-D-olivosyl-k252c]
Endpoint Result: -4%
--
Molecule: C[C@@H]1O[C@@H](n2c3ccccc3c3c4c(c5c6ccccc6[nH]c5c32)CNC4=O)[C@H](O)[C@H](O)[C@H]1O [formula (XII), N^13-1′-β-L-rhamnosyl-k252c]
Endpoint Result: -3%
